Molecular target: PDGF-BB (Homo sapiens, UniProt P01127 P01127:82-190)
Sequence (P01127 82-190, one chain of several): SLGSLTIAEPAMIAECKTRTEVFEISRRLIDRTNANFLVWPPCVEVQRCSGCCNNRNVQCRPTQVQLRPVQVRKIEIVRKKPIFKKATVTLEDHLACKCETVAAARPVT
Assay: cell_activity; inhibition of thymidine incorporation in PAE cells expressing PDGF beta-receptor, 20 ng/ml PDGF-BB
Details: tags: R&D Systems, carrier-free, E. coli produced; chain copies: 2 (homodimer, inferred); label: 5'-32P; three-way helix junction

| binder | IC50 |
| --- | --- |
| CACAGGCTACGGCACGTAGAGCATCACCATGATCCTGTGT (ssDNA, 3'-3' linked inverted T at 3' end) [36t] | 2.5 nM |
